Here, each record is paired with measured LC50 data.
# System: Vero
# test-summary: Cytotoxicity against African green monkey Vero cells after 48 hrs by SRB assay
# Format: cell-based
# condition-description: chlorocebus sabaeus, vero, 48 h
Where a name gives a salt, the structure may show the parent alone.
# unit: µM | format: bare number

Ask | Indicate the recorded LC50 value for this molecule: COc1cccc2c1C(=O)c1c(O)c3c(c(O)c1C2=O)C[C@@](O)(C(=O)CO)C[C@@H]3O[C@H]1C[C@H](N)[C@H](O)[C@H](C)O1 [DOXORUBICIN HYDROCHLORIDE]
Reply | 52.6

Ask | // fetch LC50 given entry "COc1cc(/C(Cl)=C/C=C(\C#N)C(=O)c2c(C)[nH]c3ccccc23)cc(OC)c1OC"
Reply | 68.3

Ask | Given the molecule "COc1ccc2[nH]cc(C(=O)/C(C#N)=C/C=C(\Cl)c3cc(OC)c(OC)c(OC)c3)c2c1" , write its reported LC50.
Reply | 45.2

Ask | Item "COc1cc(/C(Cl)=C/C=C(\C#N)C(=O)c2c[nH]c3ccccc23)cc(OC)c1OC" : provide LC50
Reply | 54.2

Ask | Supply reported LC50 belonging to this molecule: "COc1ccc(/C(Cl)=C/C=C(\C#N)C(=O)c2c[nH]c3ccc(Br)cc23)cc1OC"
Reply | 51.8

Ask | Answer with the recorded LC50 for the molecule listed here: "COc1ccc(/C(Cl)=C/C=C(\C#N)C(=O)c2c(C)[nH]c3ccccc23)cc1OC"
Reply | 65.9

Ask | Indicate its recorded LC50; the molecule in question is "COc1cc(/C(Cl)=C/C=C(\C#N)C(=O)c2c[nH]c3ccc(Br)cc23)cc(OC)c1OC"
Reply | 41.5

---

# test-summary: Cytotoxicity against African green monkey Vero cells after 48 hrs by SRB assay
# Format: cell-based
# condition-description: chlorocebus sabaeus, Vero cells
Where a name gives a salt, the structure may show the parent alone.
measured-parameter: GI50 at 48 h (µM)
Enter your answer as a number in µM; do not include the unit.

// worked examples, GI50 at 48 h included
COc1cc(/C(Cl)=C/C=C(\C#N)C(=O)c2c[nH]c3ccccc23)cc(OC)c1OC    16.2
COc1cc(/C(Cl)=C/C=C(\C#N)C(=O)c2c(C)[nH]c3ccccc23)cc(OC)c1OC    12.4
COc1cccc2c1C(=O)c1c(O)c3c(c(O)c1C2=O)C[C@@](O)(C(=O)CO)C[C@@H]3O[C@H]1C[C@H](N)[C@H](O)[C@H](C)O1 [DOXORUBICIN HYDROCHLORIDE]    19

Ask | Respond only with GI50 at 48 h recorded for "COc1ccc2[nH]cc(C(=O)/C(C#N)=C/C=C(\Cl)c3cc(OC)c(OC)c(OC)c3)c2c1"
Reply | 9.5

---

# test-summary: Cytotoxicity against African green monkey Vero cells after 48 hrs by SRB assay
# Assay type: cell-based
# condition-description: chlorocebus sabaeus, Vero cells
measured-parameter: GI50 at 48 h (µM)
API: value field is a number in µM; no unit string.

Past entries and their recorded results:
COc1cc(/C(Cl)=C/C=C(\C#N)C(=O)c2c[nH]c3ccc(Br)cc23)cc(OC)c1OC    7.6
COc1ccc(/C(Cl)=C/C=C(\C#N)C(=O)c2c[nH]c3ccc(Br)cc23)cc1OC    8.2

Ask | Query GI50 at 48 h for "COc1ccc(/C(Cl)=C/C=C(\C#N)C(=O)c2c(C)[nH]c3ccccc23)cc1OC"
Reply | 11.8
